Overview of reported Emax across a group of compounds:
# assayed.system: 5-HT2C (Homo sapiens)
# Construct: host or cells: HEK293
# assay.summary: FLIPR Ca2+ flux functional assay, 5-HT2C (HEK293)
# Type: cell-based
# condition.details: HEK293, agonist activity, HEK293 cells expressing 5-HT2C
The answer is to be given in %; state only the numeric part.

IN: Item COc1ccc2[nH]nc(CCN(C)C(C)C)c2c1 has what recorded Emax?
OUT: 0.09

* * *

Overview of reported pEC50 across a group of molecules:
# assayed.system: 5-HT2A (Homo sapiens, UniProt P28223)
# Sequence (P28223 whole entry): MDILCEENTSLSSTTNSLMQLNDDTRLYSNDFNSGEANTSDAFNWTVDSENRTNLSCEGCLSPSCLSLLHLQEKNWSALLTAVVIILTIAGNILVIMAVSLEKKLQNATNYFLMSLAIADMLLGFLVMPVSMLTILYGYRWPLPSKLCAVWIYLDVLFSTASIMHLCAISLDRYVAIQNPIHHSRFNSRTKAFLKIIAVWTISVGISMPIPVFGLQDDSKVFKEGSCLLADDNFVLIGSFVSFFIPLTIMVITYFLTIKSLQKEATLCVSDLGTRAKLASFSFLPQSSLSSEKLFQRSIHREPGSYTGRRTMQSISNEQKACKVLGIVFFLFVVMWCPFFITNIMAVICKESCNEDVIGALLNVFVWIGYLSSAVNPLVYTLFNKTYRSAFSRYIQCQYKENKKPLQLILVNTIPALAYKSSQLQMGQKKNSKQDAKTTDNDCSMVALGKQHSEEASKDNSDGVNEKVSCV
# assay.summary: FLIPR Ca2+ flux functional assay, 5-HT2A (HEK293)
# condition.details: agonist activity, HEK293 cells expressing 5-HT2A
Bear in mind: pEC50 is minus log10 of a mol/L concentration; give just that figure.

Past entries and their recorded results:
COc1cc(F)cc2[nH]nc(CCN3CCCC3)c12; 6.16
COc1cc(F)c2[nH]nc(CCN3CCCC3)c2c1; 5.86
CN(C)CCc1n[nH]c2c(F)cccc12; 6.37

IN: Lab request: please report pEC50 under test system 5-HT2A (Homo sapiens, UniProt P28223) for COc1ccc2[nH]nc(CCNCc3ccccc3F)c2c1
OUT: 7.16

* * *

# assayed.system: 5-HT2C (Homo sapiens, UniProt P28335)
# Construct: host or cells: HEK293
# Sequence (P28335 33-458, species assumed): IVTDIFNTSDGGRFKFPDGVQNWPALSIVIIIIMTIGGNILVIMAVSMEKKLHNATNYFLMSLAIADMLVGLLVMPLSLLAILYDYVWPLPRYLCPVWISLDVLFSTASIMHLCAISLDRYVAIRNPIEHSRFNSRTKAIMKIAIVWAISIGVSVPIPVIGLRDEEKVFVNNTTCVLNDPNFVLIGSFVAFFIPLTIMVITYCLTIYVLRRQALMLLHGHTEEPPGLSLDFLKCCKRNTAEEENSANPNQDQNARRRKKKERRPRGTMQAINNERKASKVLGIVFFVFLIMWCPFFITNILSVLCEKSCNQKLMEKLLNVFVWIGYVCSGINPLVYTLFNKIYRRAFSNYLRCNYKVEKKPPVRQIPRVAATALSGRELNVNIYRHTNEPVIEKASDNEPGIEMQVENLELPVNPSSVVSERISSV
# assay.summary: FLIPR Ca2+ flux functional assay, 5-HT2C (HEK293)
# Assay type: cell-based
# condition.details: HEK293, agonist activity, HEK293 cells expressing 5-HT2C
reported.metric: Emax

COc1cc(F)c2[nH]nc(CCN3CCC4CC43)c2c1 (stereo not shown); 87%
CCN(CC)CCc1n[nH]c2cccc(OC)c12; 70.5%
CN(C)CCc1n[nH]c2ccc(F)cc12; 80%

IN: Item COc1cccc2[nH]nc(CCN(C)C)c12 has what recorded Emax?
OUT: 83.6%

IN: Item COc1cc(F)cc2[nH]nc(CCN(C)C)c12 has what recorded Emax?
OUT: 75%

IN: Item COc1ccc(F)c2[nH]nc(CCN3CCC3)c12 has what recorded Emax?
OUT: 72%

IN: Item COc1cc2c(CCN3CCCC3)n[nH]c2cc1F has what recorded Emax?
OUT: 66%

IN: Item CC(C)N(C)CCc1n[nH]c2c(F)cc(F)cc12 has what recorded Emax?
OUT: 11%

* * *

Overview of reported Emax across a group of compounds:
# assayed.system: 5-HT2C (Homo sapiens, UniProt P28335)
# Construct: host or cells: HEK293
# assay.summary: FLIPR Ca2+ flux functional assay, 5-HT2C (HEK293)
# Assay type: cell-based
# condition.details: HEK293, agonist activity, HEK293 cells expressing 5-HT2C
Reply with a number, then the unit it belongs to.

Past entries and their recorded results:
COc1ccc(F)c2[nH]nc(CCN(C)C)c12 [Example A44]; 44%
COc1ccc2[nH]nc(CCNCc3ccccc3)c2c1 [Example A62]; 85%
CCN(CC)CCc1n[nH]c2ccc(OC)cc12 [Example P-48]; 4.22%
COc1cc(F)cc2[nH]nc(CCN3CCC4CC43)c12 (stereo not shown) [Example A43]; 99%
COc1cc(F)cc2[nH]nc(CCN(C)C(C)C)c12 [Example A40]; 68%
COc1cc2c(CCN3CCC4CC43)n[nH]c2cc1F (stereo not shown) [Example A60]; 90%
COc1ccc2[nH]nc(CCNCc3ccccc3OC)c2c1 [Example A63]; 88%
COc1ccc2[nH]nc(CCNCc3cccc(F)c3)c2c1 [Example A65]; 81%
COc1ccc2[nH]nc(CCN(C)C(C)C)c2c1F [Example A11]; 22%

Now for another entry.
IN: Item CCCN(CCC)CCc1n[nH]c2cccc(OC)c12 [Example P-44] has what recorded Emax?
OUT: 77.2%

* * *

Overview of reported pEC50 across a group of compounds:
# assayed.system: 5-HT2A (Homo sapiens)
# assay.summary: FLIPR Ca2+ flux functional assay, 5-HT2A (HEK293)
# condition.details: agonist activity, HEK293 cells expressing 5-HT2A
Bear in mind: pEC50 is minus log10 of a mol/L concentration; give just that figure.

Past entries and their recorded results:
COc1cc2c(CCN3CC(C)C3)n[nH]c2cc1F [Example A57]; 6.21
COc1c(F)ccc2[nH]nc(CCN(C)C)c12 [Example A1]; 7.55
CCN(C)CCc1n[nH]c2cc(F)cc(F)c12 [Example A29]; 6.16

IN: Lab request: please report pEC50 under test system 5-HT2A (Homo sapiens) for COc1cc(F)c2[nH]nc(CCN3CCC4CC43)c2c1 (centres unmarked) [Example A55]
OUT: 7.40

IN: Lab request: please report pEC50 under test system 5-HT2A (Homo sapiens) for COc1cc2c(CCN(C)C3CC3)n[nH]c2cc1F [Example A8]
OUT: 6.68

* * *

# assayed.system: 5-HT2B (Homo sapiens, UniProt P41595)
# Construct: host or cells: CHO-K1
# Sequence (P41595 whole entry, species assumed): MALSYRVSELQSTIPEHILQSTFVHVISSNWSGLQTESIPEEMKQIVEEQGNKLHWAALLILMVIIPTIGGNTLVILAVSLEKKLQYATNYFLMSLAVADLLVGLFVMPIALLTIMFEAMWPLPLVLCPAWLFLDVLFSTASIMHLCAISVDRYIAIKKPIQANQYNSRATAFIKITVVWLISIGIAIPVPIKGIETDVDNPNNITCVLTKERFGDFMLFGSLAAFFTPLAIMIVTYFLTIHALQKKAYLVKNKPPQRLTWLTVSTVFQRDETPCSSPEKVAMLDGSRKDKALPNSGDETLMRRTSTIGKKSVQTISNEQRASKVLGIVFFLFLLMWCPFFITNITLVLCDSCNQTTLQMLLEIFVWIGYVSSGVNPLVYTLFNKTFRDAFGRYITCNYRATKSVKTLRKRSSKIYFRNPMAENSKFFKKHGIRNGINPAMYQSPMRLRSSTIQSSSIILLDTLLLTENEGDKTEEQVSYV
# assay.summary: FLIPR Ca2+ flux functional assay, 5-HT2B (CHO-K1)
# Assay type: cell-based
# condition.details: CHO-K1, agonist activity, CHO-K1 cells expressing 5-HT2B
Overview of reported Emax across a group of molecules:
The answer is to be given in %; state only the numeric part.

Past entries and their recorded results:
CCCN(CCC)CCc1n[nH]c2cccc(OC)c12; 39.4
CCCN(CCC)CCc1n[nH]c2ccc(OC)cc12; 30.7
CCN(CC)CCc1n[nH]c2cccc(O)c12; 8.01
COc1cccc2[nH]nc(CCN(C)C)c12; 1.35
CCN(CC)CCc1n[nH]c2ccc(OC)cc12; 16.1

IN: Item COc1ccc2[nH]nc(CCN(C)C)c2c1 has what recorded Emax?
OUT: 17.9

IN: Item CCN(CC)CCc1n[nH]c2cccc(OC)c12 has what recorded Emax?
OUT: 0.24

IN: Item COc1ccc2[nH]nc(CCN(C)C(C)C)c2c1 has what recorded Emax?
OUT: 0.22

IN: Item CCCN(CCC)CCc1n[nH]c2cccc(O)c12 has what recorded Emax?
OUT: 8.93

IN: Item CN(C)CCc1n[nH]c2ccccc12 has what recorded Emax?
OUT: 0.17

IN: Item CCN(C)CCc1n[nH]c2ccc(OC)cc12 has what recorded Emax?
OUT: 30.9

* * *

Overview of reported Emax across a group of molecules:
# assayed.system: 5-HT2A (Homo sapiens, UniProt P28223)
# Construct: host or cells: HEK293
# assay.summary: FLIPR Ca2+ flux functional assay, 5-HT2A (HEK293)
# Format: cell-based
# condition.details: HEK293, agonist activity, HEK293 cells expressing 5-HT2A
The answer is to be given in %; state only the numeric part.

COc1c(F)ccc2[nH]nc(CCN(C)C(C)C)c12; 76
COc1cc(F)c2[nH]nc(CCN(C)C(C)C)c2c1; 42
Fc1ccc2[nH]nc(CCN3CCCC3)c2c1F; 87
COc1ccccc1CNCCc1n[nH]c2ccc(F)c(F)c12; 89
CCCN(CCC)CCc1n[nH]c2cccc(O)c12; 100
COc1ccccc1CNCCc1n[nH]c2cc(F)cc(F)c12; 91

IN: Item CN(C)CCc1n[nH]c2ccccc12 has what recorded Emax?
OUT: -0.3

IN: Item CN(C)CCc1n[nH]c2c(F)cc(F)cc12 has what recorded Emax?
OUT: 72

IN: Item COc1ccc2[nH]nc(CCNCc3cccc(F)c3)c2c1 has what recorded Emax?
OUT: 70

IN: Item COc1cc2c(CCN3CC4CC4C3)n[nH]c2cc1F (stereo not shown) has what recorded Emax?
OUT: 67

* * *

Overview of reported 5-HT2B % Activation @ 10 µM across a group of compounds:
# assayed.system: 5-HT2B (Homo sapiens)
# Construct: host or cells: CHO-K1
# assay.summary: Activation in a similar Ca2+ flux assay at a single concentration, 5-HT2B
# Type: cell-based
# condition.details: head prints 10 µM
The answer is to be given in %; state only the numeric part.

Past entries and their recorded results:
COc1cc2c(CCN(C)C3CC3)n[nH]c2cc1F; 6
COc1ccc2[nH]nc(CCNCc3ccccc3OC)c2c1; 11
COc1c(F)ccc2[nH]nc(CCN(C)C)c12; 21
CCN(C)CCc1n[nH]c2c(F)cc(F)cc12; 0

Now for another entry.
IN: Item CCN(C)CCc1n[nH]c2ccc(OC)c(F)c12 has what recorded 5-HT2B % Activation @ 10 µM?
OUT: 1

* * *

# assayed.system: 5-HT2A (Homo sapiens)
# Construct: host or cells: HEK293
# assay.summary: FLIPR Ca2+ flux functional assay, 5-HT2A (HEK293)
# Assay type: cell-based
# condition.details: HEK293, agonist activity, HEK293 cells expressing 5-HT2A
reported.metric: Emax (%)
The answer is to be given in %; state only the numeric part.

Past entries and their recorded results:
CN(C)CCc1n[nH]c2c(F)cccc12; 63
Fc1ccc2[nH]nc(CCN3CCC3)c2c1F; 78
COc1ccc2[nH]nc(CCN(C)C)c2c1; 70
COc1ccc2[nH]nc(CCNCc3ccccc3)c2c1; 81
CCN(C)CCc1n[nH]c2c(F)cc(F)cc12; 70
COc1cc2c(CCN3CCCC3)n[nH]c2cc1F; 79

IN: Item COc1cc(F)cc2[nH]nc(CCN(C)C(C)C)c12 has what recorded Emax?
OUT: 72
